The reported numbers originate from the Human Domainome abundance scans (Beltran et al. 2025).

B1: Zinc finger MYM-type protein 3, residues 405 to 444; numbered along this chain, Q14202 (parent)
chain: DATRCSICQKTGEVLHEVSNGSVVHRLCSDSCFSKFRANK

- Variants of: B1
- measurement description: abundance fitness (aPCA) (normalised: wild type 0, dead -1); higher = more abundant; growth selection in yeast, the domain comes from the species named
- condition summary: Homo sapiens
Reported abundance fitness by item:

# annotated cases, reported abundance fitness shown
Dear colleague, I am looking for the recorded abundance fitness of the following variant: DATRCPICQKTGEVLHEVSNGSVVHRLCSDSCFSKFRANK [S6P]
-0.009

Dear colleague, I am looking for the recorded abundance fitness of the following variant: DATRCSICQKTGEVLEEVSNGSVVHRLCSDSCFSKFRANK [H16E]
-0.033

Dear colleague, I am looking for the recorded abundance fitness of the following variant: DATRCSICQKTLEVLHEVSNGSVVHRLCSDSCFSKFRANK [G12L]
-0.245

Dear colleague, I am looking for the recorded abundance fitness of the following variant: DATRCSICQKTGEVLHEVSNGSVVHRLCSDSCFSKFSANK [R37S]
0.048

Dear colleague, I am looking for the recorded abundance fitness of the following variant: DATRCSICQKTGEVLHEVSNGSVVHRLCSNSCFSKFRANK [D30N]
-0.721

Dear colleague, I am looking for the recorded abundance fitness of the following variant: DATRVSICQKTGEVLHEVSNGSVVHRLCSDSCFSKFRANK [C5V]
-0.999

Dear colleague, I am looking for the recorded abundance fitness of the following variant: DATRCSICQKTPEVLHEVSNGSVVHRLCSDSCFSKFRANK [G12P]
-0.639

Dear colleague, I am looking for the recorded abundance fitness of the following variant: DATRCSICQKTGEVLHEVSNGSVVHRLCWDSCFSKFRANK [S29W]
-0.669

Further cases:
Dear colleague, I am looking for the recorded abundance fitness of the following variant: DATRCSICQKTGEVLHEVSNGSVVHRLCSDACFSKFRANK [S31A]
-0.063

Dear colleague, I am looking for the recorded abundance fitness of the following variant: DATRCSICQKTGEVLHEVSNGSVVHRLCSDSCFSKFRATK [N39T]
0.112

Dear colleague, I am looking for the recorded abundance fitness of the following variant: DATRCSICQQTGEVLHEVSNGSVVHRLCSDSCFSKFRANK [K10Q]
-0.208

Dear colleague, I am looking for the recorded abundance fitness of the following variant: DATRCSICQKTGEVLHEVSNGSVTHRLCSDSCFSKFRANK [V24T]
-0.038

Dear colleague, I am looking for the recorded abundance fitness of the following variant: DATRCSICQKTGEQLHEVSNGSVVHRLCSDSCFSKFRANK [V14Q]
-0.142

Dear colleague, I am looking for the recorded abundance fitness of the following variant: DATRCSICQKTGEVLHEVSNGSVVHRLCSDSCFSKFRAGK [N39G]
0.017

Dear colleague, I am looking for the recorded abundance fitness of the following variant: DATRCSICQKTGEVLHEVSNGSGVHRLCSDSCFSKFRANK [V23G]
0.018

Dear colleague, I am looking for the recorded abundance fitness of the following variant: DATRCSICQKTGEVLHEVSNGSVVHRLCSDSCFSKGRANK [F36G]
-0.206

Dear colleague, I am looking for the recorded abundance fitness of the following variant: DATRCSICQKTGEVLHEVSNGSVVHRLCSDSCFSKFRAHK [N39H]
-0.212

Dear colleague, I am looking for the recorded abundance fitness of the following variant: DATRCSICQKTGEVLHEVSNGSVVTRLCSDSCFSKFRANK [H25T]
-0.046

Dear colleague, I am looking for the recorded abundance fitness of the following variant: DATRCEICQKTGEVLHEVSNGSVVHRLCSDSCFSKFRANK [S6E]
-0.103

Dear colleague, I am looking for the recorded abundance fitness of the following variant: DATRCSICQKTGEVLHEVSNGSVVHRLNSDSCFSKFRANK [C28N]
-0.765

Dear colleague, I am looking for the recorded abundance fitness of the following variant: DATRCSICQKTGEVLHEVSNGSVVHRLKSDSCFSKFRANK [C28K]
-0.823

Dear colleague, I am looking for the recorded abundance fitness of the following variant: DATRCSICQKTGEVLHEVSNHSVVHRLCSDSCFSKFRANK [G21H]
-0.235

Dear colleague, I am looking for the recorded abundance fitness of the following variant: DATRCSICQKTGEVLHEVSNGSVVHRLCSPSCFSKFRANK [D30P]
-0.371

Dear colleague, I am looking for the recorded abundance fitness of the following variant: DATRCSICQKTGEVLHEVGNGSVVHRLCSDSCFSKFRANK [S19G]
-0.1
